# Target Of Assay: ASIC1a (Homo sapiens, UniProt P78348)
# Sequence (P78348 whole entry): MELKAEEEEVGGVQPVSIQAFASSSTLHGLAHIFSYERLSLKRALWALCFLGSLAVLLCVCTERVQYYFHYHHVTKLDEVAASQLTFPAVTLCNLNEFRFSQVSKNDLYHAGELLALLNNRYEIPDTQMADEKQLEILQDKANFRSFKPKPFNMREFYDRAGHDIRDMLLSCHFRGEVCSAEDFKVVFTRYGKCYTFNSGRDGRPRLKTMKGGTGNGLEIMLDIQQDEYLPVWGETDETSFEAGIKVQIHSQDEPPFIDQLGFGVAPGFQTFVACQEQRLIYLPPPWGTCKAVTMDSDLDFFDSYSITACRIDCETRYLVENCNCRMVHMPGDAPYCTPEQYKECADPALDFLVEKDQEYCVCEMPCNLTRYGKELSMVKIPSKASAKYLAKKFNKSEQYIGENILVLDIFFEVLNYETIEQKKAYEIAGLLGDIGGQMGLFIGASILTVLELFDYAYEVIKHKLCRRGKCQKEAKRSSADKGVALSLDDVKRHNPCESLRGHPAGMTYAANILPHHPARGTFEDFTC
# Method Notes: Two-electrode voltage clamp of acid-induced currents in Xenopus laevis oocytes
# Assay type: cell-based
# Design: expressed in transfected cells; host or cells: Xenopus laevis oocytes, nuclear microinjection of an expression vector such as pCDNA3
# Experimental Conditions: 50 μM, Xenopus oocytes; read-out: % inh. at 50 μM (Xo)
Here, each record is paired with measured inhibition at 50 µM data.

Examples with answers:
CCN1CCc2c(-c3ccccc3)cc(-c3cccc(C)n3)c(N)c2C1; > 30%
Cc1cc2c(N)c(-c3ccccc3)cc(C#N)c2cn1; > 30%
CCN1CCc2c(-c3ccccc3)cc(C#N)c(-c3cnn(C)c3)c2C1; > 30%
CCN1CCc2c(-c3ccccc3)cc(C#N)c(NC(C)=O)c2C1; 20 to 30%
CCN1CCc2c(-c3cc(F)ccc3OC)ccc(N3C(=O)CNC3=O)c2C1; < 20%

Identify the reported inhibition at 50 µM for the following entry. CCN1CCc2c(-c3ccncc3)cc(C#N)c(N)c2C1
< 20%

Identify the reported inhibition at 50 µM for the following entry. Cc1cc2c(N)c(C#N)cc(-c3ccccc3)c2cn1
> 30%

Identify the reported inhibition at 50 µM for the following entry. CCN1CCc2c(-c3ccccc3)cc(C#N)c(N3CCCC3)c2C1
> 40%

Identify the reported inhibition at 50 µM for the following entry. CCN1CCc2c(-c3cc(F)ccc3OC)ccc(NC=O)c2C1
< 20%

Identify the reported inhibition at 50 µM for the following entry. CCN1CCc2c(-c3cc(F)ccc3OC)ccc(NC(N)=O)c2C1
20 to 30%
